- System name: ERR1 (also known as ERR-α or ERR-1) (Homo sapiens, UniProt P11474)
- Construct: the ^6His-tagged-ERR1 LBD
- Sequence (P11474 193-421 limits assumed): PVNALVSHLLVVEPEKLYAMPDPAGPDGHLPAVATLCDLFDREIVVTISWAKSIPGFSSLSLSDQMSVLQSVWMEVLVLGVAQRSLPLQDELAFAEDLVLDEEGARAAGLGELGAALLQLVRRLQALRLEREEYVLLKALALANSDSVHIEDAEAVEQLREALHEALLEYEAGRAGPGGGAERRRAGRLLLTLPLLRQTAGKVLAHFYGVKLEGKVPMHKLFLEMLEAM
- Measurement description: TR-FRET assay: disruption of co-activator peptide binding to ERR1 LBD
- Condition info: 6His-tagged ERR1 LBD 6 nM, GST-SRC-2 peptide 6 nM, 25° C., 4-18 hours; average of 3 independent experiments
Decision: EC50 beneath 8 nM gives criterion met; EC50 meeting or exceeding 8 nM gives criterion not met.

Answered examples (3):
In [3]: df
Out[3]:
                                   compound   class_assignment
0  CN1CCN(C2=NC(=O)/C(=C/c3ccc(Oc4ccc(C#N)cc4C(F)(F)F)c(F)c3)S2)CC1 [Compound 8]  criterion not met
1  COc1cc(/C=C2\SC(N3CCNC(=O)C3)=NC2=O)ccc1Oc1ccc(Cl)cc1C(F)(F)F [Example 61]      criterion met
2  COc1cc(/C=C2\SC(N(C)CCN(C)C)=NC2=O)ccc1Oc1ccc(C#N)cc1C(F)(F)F [Compound 11]  criterion not met

Query compound follows.
Task: Does the reported EC50 of COc1cc(/C=C2\SC(NCCC3CCOCC3)=NC2=O)ccc1Oc1ccc(C#N)cc1C(F)(F)F [Example 109] stay below 8 nM?
Output: criterion met
